Values from patent US20250320312A1

Target: T1, Peptide 8: Biotin-AEAAAKEAAAKEAAAKEAAAKAAA-Tyr-acid (N-terminal biotin; C-terminal acid)
T1 construct: Control peptide without PC
T1 peptide: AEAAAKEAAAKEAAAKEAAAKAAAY
Assay: scFv ELISA
Description: For ELISA analysis of scFv binding, 96-well polystyrene plates were coated with Peptide 1, 4, 5, 8 or 100 μL BSA (10 μg/mL) in PBS at 4° C. overnight. […] All plates were washed three times with PBS-Tween before 40 μL aliquots of PPE were added to assay plates along with 50 μL 10% BSA, and plates were incubated for 1 hour at room temperature. […] The amount of scFv bound to each well was quantitated from absorbance measurement at 450 nm (OD450).
readout kind: OD450

binder	OD450
PcOxP_DB03_F05 (scFv, V domains shown, scFv in periplasmic extract) VH: EVQLLESGGGLVQPGGSLRLSCAASGFTFSDYYMEWVRQAPGKGLEWVAASRNKGNDYTTAYADSVKGRFTISRDNSKNTLYLQMNSLRAEDTAVYYCARDYFGSSYWYFDVWGQGTLVTVSS VL: DIVMTQSPDSLAVSLGERATINCTASQSVYSSKHNKHYLAWYQQKPGQPPKLLIYGASNPYIGVPDRFSGSGSGTDFTLTISSLQAEDVAVYYCAQFYSYPLTFGGGTKVEIK	0.04 OD450

# lookup: OD450 of PcOxP_DB04_C11 (scFv, V domains shown, scFv in periplasmic extract) VH: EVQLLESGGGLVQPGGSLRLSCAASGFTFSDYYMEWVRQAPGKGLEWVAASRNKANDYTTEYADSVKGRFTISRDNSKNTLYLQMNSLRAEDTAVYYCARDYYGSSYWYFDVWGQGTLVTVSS VL: DIVMTQSPDSLAVSLGERATINCTASESLYSSKHKVHYLAWYQQKPGQPPKLLIYGASHRQIGVPDRFSGSGSGTDFTLTISSLQAEDVAVYYCAQFYSYPLTFGGGTKVEIK
0.04 OD450
